- test.target: endogenous CGRP receptor (Homo sapiens, UniProt O60894+Q16602)
- Sequence (Q16602 23-461): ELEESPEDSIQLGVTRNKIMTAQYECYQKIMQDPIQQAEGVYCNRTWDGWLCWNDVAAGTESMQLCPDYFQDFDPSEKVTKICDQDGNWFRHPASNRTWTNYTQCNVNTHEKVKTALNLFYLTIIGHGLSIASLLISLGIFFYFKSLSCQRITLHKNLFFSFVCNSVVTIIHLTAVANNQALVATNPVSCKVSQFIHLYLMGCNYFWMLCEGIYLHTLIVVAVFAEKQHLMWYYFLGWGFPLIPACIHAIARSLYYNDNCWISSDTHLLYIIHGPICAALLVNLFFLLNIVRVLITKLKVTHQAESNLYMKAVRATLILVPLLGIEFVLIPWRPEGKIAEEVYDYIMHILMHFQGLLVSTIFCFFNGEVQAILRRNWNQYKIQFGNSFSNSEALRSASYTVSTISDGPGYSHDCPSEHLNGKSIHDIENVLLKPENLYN
- Sequence (O60894 27-148): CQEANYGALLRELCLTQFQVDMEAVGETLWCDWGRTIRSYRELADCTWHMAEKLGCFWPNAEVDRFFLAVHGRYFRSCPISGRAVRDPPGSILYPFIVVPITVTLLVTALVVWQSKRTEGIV
- test.details: CGRP functional antagonism using SK-N-MC-BLA (4C10), β-lactamase transcriptional reporter assay
- condition.context: SK-N-MC (4C10) cells, inhibition of β-lactamase expression in the presence of 200 pM CGRP
pIC50: −log10 of the molar value.
parameter: pIC50

These recorded examples may help you get a feel for the data.
>  <compound>
CC(C)(C)CCN1C(=O)[C@H](CC(=O)N2CCC(N3CCc4ccccc4NC3=O)CC2)SC1c1cccc(F)c1N1CCN(C2CCC2)CC1 (stereo partly drawn) [Compound 542]

>  <test.target>
endogenous CGRP receptor (Homo sapiens, UniProt O60894+Q16602)

>  <pIC50>
> 6.00

$$$$
>  <compound>
CC(C)CCN1C(=O)C(CC(=O)N2CCC(n3c(=O)[nH]c4ncccc43)CC2)SC1c1ccccc1 (stereo not drawn)

>  <test.target>
endogenous CGRP receptor (Homo sapiens, UniProt O60894+Q16602)

>  <pIC50>
> 6.00

$$$$
>  <compound>
O=C(CC1SC(c2ccccc2)N(CCc2ccncc2)C1=O)N1CCC(N2Cc3ccccc3NC2=O)CC1 (stereo not drawn)

>  <test.target>
endogenous CGRP receptor (Homo sapiens, UniProt O60894+Q16602)

>  <pIC50>
5.30 to 6.00

$$$$

Prompt: Name the recorded pIC50 of CC(C)(C)CCN1C(=O)[C@H](CC(=O)N2CCC(O)(c3ccc(F)cc3)CC2)SC1c1cccc(F)c1N1CCN(C(C)(C)C)CC1 (stereo partly drawn) , assay system endogenous CGRP receptor (Homo sapiens, UniProt O60894+Q16602).
Completion: < 5.30

Prompt: Tell me its pIC50 on endogenous CGRP receptor (Homo sapiens, UniProt O60894+Q16602): CN1CCN(c2ccccc2[C@@H]2S[C@H](CC(=O)N3CCC(N4CCc5ccccc5NC4=O)CC3)C(=O)N2CCC(C)(C)C)CC1
Completion: < 5.30

Prompt: Give pIC50; test system endogenous CGRP receptor (Homo sapiens, UniProt O60894+Q16602); compound CC(C)CCN1C(=O)C(CC(=O)N2CCC(N3Cc4ccccc4NC3=O)CC2)SC1c1ccccn1 (stereo not drawn)
Completion: > 6.00

* * *

- test.target: endogenous CGRP receptor (Homo sapiens, UniProt O60894+Q16602)
- test.details: CGRP functional antagonism using SK-N-MC-BLA (4C10), β-lactamase transcriptional reporter assay
- condition.context: SK-N-MC (4C10) cells, inhibition of β-lactamase expression in the presence of 200 pM CGRP
pIC50: −log10 of the molar value.
# pIC50 values compiled below

>  <molecule>
CC(C)CCN1C(=O)C(CC(=O)N2CCC(N3CCc4ccccc4NC3=O)CC2)SC1c1ccccc1N1CCOCC1 (stereo not drawn) [Compound 10]

>  <pIC50>
> 6.00

$$$$
>  <molecule>
CN1CCN(c2ccccc2C2SC(CC(=O)N3CC(N4Cc5ccccc5NC4=O)C3)C(=O)N2CCC(C)(C)C)CC1 (stereo not drawn) [Compound 477]

>  <pIC50>
< 5.30

$$$$
>  <molecule>
CC(C)(C)CCN1C(=O)C(CC(=O)N2CCC(N3Cc4ccccc4NC3=O)CC2)SC1c1ccccc1N1CCCCC1 (stereo not drawn) [Compound 235]

>  <pIC50>
5.30 to 6.00

$$$$

Prompt: State, in one line, measured pIC50 of CC(C)(C)CCN1C(=O)C(CC(=O)N2CCC(N3Cc4ccccc4NC3=O)CC2)SC1c1ccccc1F (stereo not drawn) [Compound 252]
Completion: > 6.00

Prompt: Provide only the value of recorded pIC50 for CC(C)CCN1C(=O)C(CC(=O)N2CCC3(CC2)C(=O)N(C)c2ccccc23)SC1c1ccccc1 (stereo not drawn) [Compound 29]
Completion: < 5.30

Prompt: Give the measured pIC50 for CC(C)CCN1C(=O)C(CC(=O)N2CCC(N3Cc4ccccc4NC3=O)CC2)SC1c1ccc(F)cc1F (stereo not drawn) [Compound 212]
Completion: > 6.00

* * *

- test.target: endogenous CGRP receptor (Homo sapiens, UniProt O60894+Q16602)
- test.details: CGRP functional antagonism using SK-N-MC-BLA (4C10), β-lactamase transcriptional reporter assay
- condition.context: SK-N-MC (4C10) cells, inhibition of β-lactamase expression in the presence of 200 pM CGRP
- Protocol: Measuring CGRP Functional Antagonism Using SK-N-MC-BLA (4C10): CGRP functional antagonism was characterized in a cell based transcriptional assay using a recombinant SK-N-MC line. […] Single clones were separated using Fluorescent Activated Cell Sorting (FACS) based on CGRP induced β-lactamase activity. β-lactamase activity was measured using a fluorescence energy transfer (FRET) dye, CCF4. […]
pIC50: −log10 of the molar value.
Entries and their pIC50

Please review the following examples before continuing.
>  <compound>
CC(C)(C)CCN1C(=O)[C@H](CC(=O)N2CCC(N3CC(=O)NC3=O)CC2)S[C@H]1c1cccc(F)c1N1CCN(C(C)(C)C)CC1

>  <pIC50>
> 6.00

$$$$
>  <compound>
CCCN1C(=O)C(CC(=O)N2CCC(N3Cc4ccccc4NC3=O)CC2)SC1c1ccccc1 (stereo not shown)

>  <pIC50>
5.30 to 6.00

$$$$
>  <compound>
CC(C)(C)CCN1C(=O)[C@H](CC(=O)N2CCC(N3CCc4ccccc4NC3=O)CC2)SC1c1cccc(F)c1N1CC[C@H](O)C1 (stereo partly shown) [Compound 485]

>  <pIC50>
5.30 to 6.00

$$$$

Prompt: Supply pIC50 value. Item: O=C(CC1SC(c2c(F)cccc2F)N(CC2CCCCC2)C1=O)N1CCC(N2CCc3ccccc3NC2=O)CC1 (stereo not shown)
Completion: > 6.00

* * *

- test.target: endogenous CGRP receptor (Homo sapiens, UniProt O60894+Q16602)
- test.details: CGRP functional antagonism using SK-N-MC-BLA (4C10), β-lactamase transcriptional reporter assay
- condition.context: SK-N-MC (4C10) cells, inhibition of β-lactamase expression in the presence of 200 pM CGRP
pIC50: −log10 of the molar value.
parameter: pIC50

Prompt: Specify reported pIC50 for the compound shown: CC1=CCCC(C)C1C1SC(CC(=O)N2CCC(N3Cc4ccccc4NC3=O)CC2)C(=O)N1CCC(C)C (stereo not shown)
Completion: > 6.00

Prompt: Tell me its pIC50 given CC(C)(C)CCN1C(=O)C(CC(=O)N2CCC(N3CCc4ccccc4NC3=O)CC2)SC1c1cccc(F)c1NCCN1CCOCC1 (stereo in doubt) as the entry.
Completion: > 6.00

Prompt: Please list pIC50 recorded for the compound CC(C)(C)CCN1C(=O)[C@H](CC(=O)N2CCC(n3c(=O)[nH]c4ncccc43)CC2)SC1c1cccc(F)c1C1CCN(C(=O)OC(C)(C)C)CC1 (stereo partly shown)
Completion: < 5.30

Prompt: Given COc1ccc(C(=O)C2CCN(C(=O)C[C@@H]3SC(c4cccc(F)c4N4CCN(C(C)(C)C)CC4)N(CCC(C)(C)C)C3=O)CC2)cc1 (stereo partly shown) , respond with its pIC50.
Completion: > 6.00

* * *

pIC50 reference
- test.target: endogenous CGRP receptor (Homo sapiens, UniProt O60894+Q16602)
- test.details: CGRP functional antagonism using SK-N-MC-BLA (4C10), β-lactamase transcriptional reporter assay
- condition.context: SK-N-MC (4C10) cells, inhibition of β-lactamase expression in the presence of 200 pM CGRP
pIC50: −log10 of the molar value.

>  <molecule>
CN(C)CCCN(C)c1ccccc1C1SC(CC(=O)N2CCC(N3CCc4ccccc4NC3=O)CC2)C(=O)N1CCC(C)(C)C (centres unmarked) [Compound 385]

>  <pIC50>
5.30 to 6.00

$$$$
>  <molecule>
CC(C)(C)CCN1C(=O)C(CC(=O)N2CCC(N3CCc4ccccc4NC3=O)CC2)SC1c1ccccc1N1CCC(O)CC1 (centres unmarked) [Compound 150]

>  <pIC50>
> 6.00

$$$$
>  <molecule>
CC(C)(C)CCN1C(=O)[C@H](CC(=O)N2CCC(N3CCc4ccccc4NC3=O)CC2)SC1c1cccc(F)c1N1CC[C@@H](O)C1 (some centres unmarked) [Compound 487]

>  <pIC50>
> 6.00

$$$$
>  <molecule>
CN(C)CCNc1c(F)cccc1C1S[C@@H](CC(=O)N2CCC(n3c(=O)[nH]c4ncccc43)CC2)C(=O)N1CCC(C)(C)C (some centres unmarked) [Compound 518]

>  <pIC50>
> 6.00

$$$$
>  <molecule>
CC(C)CCN1CCC(c2ncc(C3S[C@@H](CC(=O)N4CCC(N5CCc6ccccc6NC5=O)CC4)C(=O)N3CCC(C)(C)C)s2)CC1 (some centres unmarked) [Compound 519]

>  <pIC50>
> 6.00

$$$$
>  <molecule>
CC1=CCCC(C)C1C1SC(CC(=O)N2CCC(N3CCc4ccccc4NC3=O)CC2)C(=O)N1CCC(C)C (centres unmarked) [Compound 181]

>  <pIC50>
> 6.00

$$$$
>  <molecule>
COC(=O)[C@@H](CC1CCCCC1)N1C(=O)C(CC(=O)N2CCC(N3CCc4ccccc4NC3=O)CC2)SC1c1ccccc1 (some centres unmarked) [Compound 243]

>  <pIC50>
5.30 to 6.00

$$$$
>  <molecule>
CC(C)CCN1C(=O)C(CC(=O)N2CCC(N3CCc4ccccc4NC3=O)CC2)SC1[C@@H](C)c1ccccc1 (some centres unmarked) [Compound 11]

>  <pIC50>
> 6.00

$$$$
>  <molecule>
CC(C)CCN1C(=O)C(CC(=O)N2CCC(n3c(=O)[nH]c4ccccc43)CC2)SC1c1ccccc1-n1ccnc1 (centres unmarked) [Compound 289]

>  <pIC50>
> 6.00

$$$$
>  <molecule>
CC(C)(C)CC1SC(CC(=O)N2CCC(N3CCc4ccccc4NC3=O)CC2)C(=O)N1c1ccc(N2CCOCC2)cc1 (centres unmarked) [Compound 423]

>  <pIC50>
> 6.00

$$$$

Prompt: // output pIC50; input CN1CCN(c2c(F)cccc2C2SC(CC(=O)N3CCC(n4c(=O)[nH]c5ccccc54)CC3)C(=O)N2CCC(C)(C)C)CC1 (centres unmarked) [Compound 338] ; system endogenous CGRP receptor (Homo sapiens, UniProt O60894+Q16602)
Completion: > 6.00

Prompt: State recorded pIC50 with endogenous CGRP receptor (Homo sapiens, UniProt O60894+Q16602), entry CN(C)[C@H]1CCN(c2ccccc2C2SC(CC(=O)N3CCC(n4c(=O)[nH]c5ncccc54)CC3)C(=O)N2CCC(C)(C)C)C1 (some centres unmarked) [Compound 404] , no comment.
Completion: 5.30 to 6.00

Prompt: Please report the measured pIC50 for CC(C)(C)CCN1C(=O)C(CC(=O)N2CCC(N3CCc4ccccc4NC3=O)CC2)SC1c1cccc2cc[nH]c12 (centres unmarked) [Compound 277] tested on endogenous CGRP receptor (Homo sapiens, UniProt O60894+Q16602).
Completion: > 6.00

Prompt: Provide endogenous CGRP receptor (Homo sapiens, UniProt O60894+Q16602) pIC50 reading for CC(C)(C)CCN1C(=O)[C@H](CC(=O)N2CCC(N3CCc4ccccc4NC3=O)CC2)SC1c1cccc(F)c1N1CCC(N)C1 (some centres unmarked) [Compound 471] .
Completion: > 6.00

Prompt: Would you please give the reported pIC50 of CC(C)CC(CO)N1C(=O)C(CC(=O)N2CCC(N3CCc4ccccc4NC3=O)CC2)SC1c1ccccc1 (centres unmarked) [Compound 214] with endogenous CGRP receptor (Homo sapiens, UniProt O60894+Q16602)?
Completion: 5.30 to 6.00

Prompt: Jot down pIC50 (endogenous CGRP receptor (Homo sapiens, UniProt O60894+Q16602)) of CC(C)(C)N1CCN(c2c(F)cccc2[C@H]2S[C@@H](CC(=O)N3CCC(N4CCc5ccccc5NC4=O)CC3)C(=O)N2CCc2ccccc2)CC1 [Compound 507] .
Completion: > 6.00

Prompt: Report pIC50 on endogenous CGRP receptor (Homo sapiens, UniProt O60894+Q16602) for this entry: CN(c1ccccc1C1SC(CC(=O)N2CCC(N3CCc4ccccc4NC3=O)CC2)C(=O)N1CCC(C)(C)C)[C@H]1CCN(Cc2ccccc2)C1 (some centres unmarked) [Compound 409]
Completion: < 5.30
